System: Plasmodium falciparum
test summary: Antimalarial activity against Plasmodium falciparum 3D7 infected in human O positive erythrocytes assessed as reduction of parasite growth after 24 to 44 hrs by Giemsa staining
Assay type: functional, organism-based
pIC50: −log10 of the molar value.
Entries and their pIC50 values follow.

molecule smiles	property measured	experimental value
Brc1c2nc(c(-c3ccccc3)c3ccc([nH]3)c(Br)c3nc(c(-c4ccccc4)c4ccc1[nH]4)C=C3)C=C2	pIC50	6.70
O=Cc1c2nc(c(-c3ccccc3)c3ccc(cc4nc(c(-c5ccccc5)c5ccc1[nH]5)C=C4)[nH]3)C=C2	pIC50	< 4.70

For record "COc1cc(-c2c3nc(c(N4C(=O)CC[C@H]4C(=O)O)c4ccc([nH]4)c(-c4cc(OC)c(OC)c(OC)c4)c4nc(cc5ccc2[nH]5)C=C4)C=C3)cc(OC)c1OC" the listed pIC50 is 7.70

// data source = ChEMBL document CHEMBL2417506
